Test: physchem
Details: water, thermodynamic from solid
Measure name: solubility at 24 h

Recall and state the measured solubility at 24 h for NC(=NCc1ccccc1)NC(=O)c1nc(Cl)c(N)nc1N [Benzamil free base] . < 100 µg/mL

###

Assay: Physical stability under Accelerated Aging Conditions (AAC, 40° C./75% RH, 2 days), HT-XRPD
Conditions: AAC 40° C./75% RH, 2 days, re-analyzed by HT-XRPD
Measure name: Physical Stability

| Compound | Measured value |
| --- | --- |
| NC(=NC(=O)c1nc(Cl)c(N)nc1N)NCc1ccccc1.O=C(O)c1cc2ccccc2c(Cc2c(O)c(C(=O)O)cc3ccccc23)c1O [PAM2] | Stable |
| N=C(NCc1ccccc1)NC(=O)c1nc(Cl)c(N)nc1N.O=S(=O)(O)c1ccc2ccccc2c1 [NSA1] | Unstable |
| NC(=NC(=O)c1nc(Cl)c(N)nc1N)NCc1ccccc1.O=S(=O)(O)CCS(=O)(=O)O [EDY2] | Stable |
| Br.N=C(NCc1ccccc1)NC(=O)c1nc(Cl)c(N)nc1N [HBR1] | Stable |
| NC(=NC(=O)c1nc(Cl)c(N)nc1N)NCc1ccccc1.O=C(O)c1ccco1 [FUR3] | Unstable |

Hey, quick one: what's Physical Stability for each of these?
1. N=C(NCc1ccccc1)NC(=O)c1nc(Cl)c(N)nc1N.O=C(O)c1cc(O)ccc1O [GEN2]
2. NC(=NC(=O)c1nc(Cl)c(N)nc1N)NCc1ccccc1.O=S(=O)(O)CCS(=O)(=O)O [EDY1]
3. CCC(=O)O.NC(=NC(=O)c1nc(Cl)c(N)nc1N)NCc1ccccc1 [PRO3]
4. N=C(NCc1ccccc1)NC(=O)c1nc(Cl)c(N)nc1N.O=C(O)c1cc(=O)[nH]c(=O)[nH]1 [ORO1]

1: Stable; 2: Unstable; 3: Unstable; 4: Stable

###

Assay: Crystallinity of salt forms by HT-XRPD
Assay type: physicochemical
Conditions: salt screen solid forms
Measure name: Crystallinity

Known results for compounds:
| Compound | Crystallinity |
| --- | --- |
| CS(=O)(=O)O.NC(=NC(=O)c1nc(Cl)c(N)nc1N)NCc1ccccc1 [MES1] | Good |
| N=C(NCc1ccccc1)NC(=O)c1nc(Cl)c(N)nc1N.O=C(O)c1cc(O)ccc1O | Moderate |
| NC(=NC(=O)c1nc(Cl)c(N)nc1N)NCc1ccccc1.O=C(O)c1cc2ccccc2c(Cc2c(O)c(C(=O)O)cc3ccccc23)c1O [PAM4] | Poor |
| NC(=NC(=O)c1nc(Cl)c(N)nc1N)NCc1ccccc1.O=S(=O)(O)c1ccc2ccccc2c1 | Moderate |
| CS(=O)(=O)O.NC(=NC(=O)c1nc(Cl)c(N)nc1N)NCc1ccccc1 [MES3] | Moderate |

Hey, quick one: what's Crystallinity for each of these?
1. CCC(=O)O.NC(=NC(=O)c1nc(Cl)c(N)nc1N)NCc1ccccc1 [PRO3]
2. NC(=NC(=O)c1nc(Cl)c(N)nc1N)NCc1ccccc1.O=C(O)CNC(=O)c1ccccc1 [HIP2]
3. NC(=NC(=O)c1nc(Cl)c(N)nc1N)NCc1ccccc1.O=S(=O)(O)CCS(=O)(=O)O [EDY2]
4. NC(=NC(=O)c1nc(Cl)c(N)nc1N)NCc1ccccc1.O=S(=O)(O)CCS(=O)(=O)O [EDY3]
5. Br.N=C(NCc1ccccc1)NC(=O)c1nc(Cl)c(N)nc1N [HBR1]
6. N=C(NCc1ccccc1)NC(=O)c1nc(Cl)c(N)nc1N.O=C(O)CC(=O)O

1: Moderate; 2: Poor; 3: Good; 4: Good; 5: Moderate; 6: Good

###

Assay: Physical stability under Accelerated Aging Conditions (AAC, 40° C./75% RH, 2 days), HT-XRPD
Conditions: Example 2; 40° C./75% RH for 2 days
Measure name: physical stability upon exposure to AAC

Known results for compounds:
| Compound | Measure name | Measured value |
| --- | --- | --- |
| CCCCCCCCCCCCCCCCCC(=O)O.NC(=NC(=O)c1nc(Cl)c(N)nc1N)NCc1ccccc1 [STE2] | physical stability upon exposure to AAC | physically stable |
| CCCCCCCCCCCCCCCCCC(=O)O.NC(=NC(=O)c1nc(Cl)c(N)nc1N)NCc1ccccc1 [STE1] | physical stability upon exposure to AAC | physically stable |
| N=C(NCc1ccccc1)NC(=O)c1nc(Cl)c(N)nc1N.O=C(O)c1cc(O)ccc1O [GEN2] | physical stability upon exposure to AAC | physically stable |
| NC(=NC(=O)c1nc(Cl)c(N)nc1N)NCc1ccccc1.O=C(O)C=Cc1ccccc1 [CIN2] | physical stability upon exposure to AAC | physically stable |
| CS(=O)(=O)O.NC(=NC(=O)c1nc(Cl)c(N)nc1N)NCc1ccccc1 [MES1] | physical stability upon exposure to AAC | physically stable |

Hey, quick one: what's physical stability upon exposure to AAC for each of these?
1. NC(=NC(=O)c1nc(Cl)c(N)nc1N)NCc1ccccc1.O=C(O)c1cccnc1 [NIC1]
2. NC(=NC(=O)c1nc(Cl)c(N)nc1N)NCc1ccccc1.O=C(O)C=Cc1ccccc1 [CIN1]

1. physically stable
2. physically stable

###

Assay: Crystallinity of salt forms by HT-XRPD
Format: physicochemical
Conditions: salt screen solid forms
Measure name: Crystallinity

| Compound | Crystallinity |
| --- | --- |
| NC(=NC(=O)c1nc(Cl)c(N)nc1N)NCc1ccccc1.O=CO [FOR4] | Good |
| NC(=NC(=O)c1nc(Cl)c(N)nc1N)NCc1ccccc1.O=C(O)c1ccco1 [FUR3] | Good |
| NC(=NC(=O)c1nc(Cl)c(N)nc1N)NCc1ccccc1.O=C(O)C=CC(=O)O [MAE3] | Moderate |
| NC(=NC(=O)c1nc(Cl)c(N)nc1N)NCc1ccccc1.NC(=NC(=O)c1nc(Cl)c(N)nc1N)NCc1ccccc1.O=S(=O)(O)CCS(=O)(=O)O [EDY4] | Good |
| N=C(NCc1ccccc1)NC(=O)c1nc(Cl)c(N)nc1N.O=S(=O)(O)c1ccccc1 [BES2] | Good |
| NC(=NCc1ccccc1)NC(=O)c1nc(Cl)c(N)nc1N.O=C(O)C=CC(=O)O [FUM1] | Good |

Hey, quick one: what's Crystallinity for each of these?
1. Br.NC(=NC(=O)c1nc(Cl)c(N)nc1N)NCc1ccccc1 [HBR6]
2. NC(=NC(=O)c1nc(Cl)c(N)nc1N)NCc1ccccc1.O=S(=O)(O)CCS(=O)(=O)O [EDY5]
3. NC(=NC(=O)c1nc(Cl)c(N)nc1N)NCc1ccccc1.O=C(O)CCCCC(=O)O [ADI1]
4. NC(=NC(=O)c1nc(Cl)c(N)nc1N)NCc1ccccc1.O=C(O)CC(O)(CC(=O)O)C(=O)O [CIT1]
5. NC(=NC(=O)c1nc(Cl)c(N)nc1N)NCc1ccccc1.O=C(O)c1ccco1 [FUR2]
6. CCC(=O)O.NC(=NC(=O)c1nc(Cl)c(N)nc1N)NCc1ccccc1 [PRO5]
7. NC(=NC(=O)c1nc(Cl)c(N)nc1N)NCc1ccccc1.O=C(O)C=Cc1ccccc1 [CIN1]
8. NC(=NC(=O)c1nc(Cl)c(N)nc1N)NCc1ccccc1.O=S(=O)(O)c1ccccc1 [BES1]

["Good", "Moderate", "Good", "Moderate/Poor", "Good", "Moderate", "Moderate", "Good"]

Hey, quick one: what's Crystallinity for each of these?
1. NC(=NC(=O)c1nc(Cl)c(N)nc1N)NCc1ccccc1.O=CO [FOR2]
2. NC(=NC(=O)c1nc(Cl)c(N)nc1N)NCc1ccccc1.O=C(O)CNC(=O)c1ccccc1 [HIP1]
3. CCCCCCCCCCCCCCCCCC(=O)O.NC(=NC(=O)c1nc(Cl)c(N)nc1N)NCc1ccccc1 [STE2]
4. NC(=NC(=O)c1nc(Cl)c(N)nc1N)NCc1ccccc1.O=CO [FOR5]

1. Moderate/Poor
2. Good
3. Poor
4. Good

###

Experiment: Crystallinity of salt forms by HT-XRPD
Type: physicochemical
Conditions: salt screen solid forms
Measure name: Crystallinity

Known results for molecules:
| Molecule | Crystallinity |
| --- | --- |
| NC(=NC(=O)c1nc(Cl)c(N)nc1N)NCc1ccccc1.O=C(O)c1ccccc1O [SAL2] | Poor |
| Br.N=C(NCc1ccccc1)NC(=O)c1nc(Cl)c(N)nc1N [HBR8] | Good |
| Br.N=C(NCc1ccccc1)NC(=O)c1nc(Cl)c(N)nc1N [HBR7] | Good |
| NC(=NCc1ccccc1)NC(=O)c1nc(Cl)c(N)nc1N.O=S(=O)(O)c1ccc2ccccc2c1 | Poor |
| NC(=NC(=O)c1nc(Cl)c(N)nc1N)NCc1ccccc1.O=C(O)C=CC(=O)O [MAE2] | Good |

Hey, quick one: what's Crystallinity for each of these?
1. CCC(=O)O.NC(=NC(=O)c1nc(Cl)c(N)nc1N)NCc1ccccc1 [PRO2]
2. N=C(NCc1ccccc1)NC(=O)c1nc(Cl)c(N)nc1N.O=S(=O)(O)c1ccc2ccccc2c1
3. NC(=NC(=O)c1nc(Cl)c(N)nc1N)NCc1ccccc1.O=C(O)c1ccco1 [FUR1]
4. NC(=NC(=O)c1nc(Cl)c(N)nc1N)NCc1ccccc1.O=C(O)c1ccccc1O [SAL3]

1. Moderate
2. Good
3. Good
4. Moderate

Hey, quick one: what's Crystallinity for each of these?
1. Br.NC(=NC(=O)c1nc(Cl)c(N)nc1N)NCc1ccccc1 [HBR10]
2. NC(=NC(=O)c1nc(Cl)c(N)nc1N)NCc1ccccc1.O=CO [FOR3]
3. CCCCC(=O)O.NC(=NC(=O)c1nc(Cl)c(N)nc1N)NCc1ccccc1 [VAL1]

["Moderate", "Good", "Good"]

Hey, quick one: what's Crystallinity for each of these?
1. CCS(=O)(=O)O.NC(=NC(=O)c1nc(Cl)c(N)nc1N)NCc1ccccc1 [ESY4]
2. NC(=NC(=O)c1nc(Cl)c(N)nc1N)NCc1ccccc1.O=C(O)c1cccnc1

1. Moderate
2. Good

Hey, quick one: what's Crystallinity for each of these?
1. NC(=NC(=O)c1nc(Cl)c(N)nc1N)NCc1ccccc1.O=S(=O)(O)CCS(=O)(=O)O [EDY1]
2. CCS(=O)(=O)O.NC(=NC(=O)c1nc(Cl)c(N)nc1N)NCc1ccccc1 [ESY1]
3. CCC(=O)O.NC(=NC(=O)c1nc(Cl)c(N)nc1N)NCc1ccccc1 [PRO1]
4. N=C(NCc1ccccc1)NC(=O)c1nc(Cl)c(N)nc1N.O=CO

1: Good; 2: Good; 3: Good; 4: Good

Values were extracted from patent US20250002463A1.
